Assay: Displacement of ethidium from poly[d(G-C)]-poly[d(G-C)] DNA (unknown origin) by fluorimetric method
Lab note: anything with C50 below 1 µM is marked yes; values at 1 µM or higher are marked no.

Given Cc1cc(C(=O)Nc2ccc[n+](C)c2)ccc1NC(=O)c1ccc(C(=O)Nc2ccc(C(=O)Nc3ccc[n+](C)c3)cc2C)cc1.Cc1ccc(S(=O)(=O)[O-])cc1.Cc1ccc(S(=O)(=O)[O-])cc1 , is recorded C50 strictly lower than 1 µM?
no

Check if C50 falls below 1 µM for C[n+]1cccc(-c2ccc(NC(=O)/C=C/c3ccc(C(=O)Nc4ccc(-c5ccc(-c6ccc(-c7ccc[n+](C)c7)cc6)cc5)cc4)cc3)cc2)c1.Cc1ccc(S(=O)(=O)[O-])cc1.Cc1ccc(S(=O)(=O)[O-])cc1 .
yes

Does C[n+]1ccc(Nc2ccc(/C=C/c3ccc(Nc4cc[n+](C)c5ccc(N)cc45)cc3)cc2)cc1.[Br-].[Br-] have C50 strictly under 1 µM?
yes

Consider C[n+]1cccc(NC(=O)c2ccc(NC(=O)c3ccc(C(=O)Nc4ccc(-c5ccc(-c6ccc(-c7ccc[n+](C)c7)cc6)cc5)cc4)cc3)cc2)c1.Cc1ccc(S(=O)(=O)[O-])cc1.Cc1ccc(S(=O)(=O)[O-])cc1 . Does its C50 lie strictly below 1 µM?
yes

Record C[n+]1ccc(Nc2ccc(NC(=O)c3ccc(Nc4cc[n+](C)c5c(Cl)cccc45)cc3)cc2)cc1.Cc1ccc(S(=O)(=O)[O-])cc1.Cc1ccc(S(=O)(=O)[O-])cc1 : is its C50 strictly below 1 µM?
no

====

Assay: Lipophilic-hydrophilic balance, Rm of the compound by partition chromatography
Type: physicochemical
Measured endpoint: Rm
Give the figure by itself; no unit, no explanation.

Value lookup for Rm; key = CC[n+]1cccc(NC(=O)c2ccc(NC(=O)c3ccc(C(=O)Nc4ccc(C(=O)Nc5ccc[n+](CC)c5)cc4)cc3)cc2)c1.Cc1ccc(S(=O)(=O)[O-])cc1.Cc1ccc(S(=O)(=O)[O-])cc1
-0.32

// Rm lookup, key: CCC[n+]1cccc2cc(NC(=O)c3ccc(NC(=O)c4ccc(C(=O)Nc5ccc6c(ccc[n+]6CCC)c5)cc4)cc3)ccc21.Cc1ccc(S(=O)(=O)[O-])cc1.Cc1ccc(S(=O)(=O)[O-])cc1
-0.21

Which value of Rm has been reported for CC[n+]1ccc(Nc2ccc(NC(=O)c3ccc(Nc4cc[n+](CC)c5ccccc45)cc3)cc2N)cc1.[I-].[I-] in the records?
0.56

I would be grateful if you could share the reported Rm for CCC[n+]1cccc2cc(NC(=O)COc3ccc(C(=O)Nc4ccc5c(ccc[n+]5CCC)c4)cc3)ccc21.Cc1ccc(S(=O)(=O)[O-])cc1.Cc1ccc(S(=O)(=O)[O-])cc1 .
0.15

Rm lookup needed for CCCCC[n+]1cccc2cc(NC(=O)c3ccc(C(=O)Nc4ccc5c(ccc[n+]5CCCCC)c4)cc3)ccc21.Cc1ccc(S(=O)(=O)[O-])cc1.Cc1ccc(S(=O)(=O)[O-])cc1 , thanks.
0.92

Which Rm reading was recorded for the compound C[n+]1cccc(-c2ccc(NC(=O)/C=C/c3ccc(C(=O)Nc4ccc(-c5ccc(-c6ccc(-c7ccc[n+](C)c7)cc6)cc5)cc4)cc3)cc2)c1.Cc1ccc(S(=O)(=O)[O-])cc1.Cc1ccc(S(=O)(=O)[O-])cc1 ?
-0.75

Using the record for C[n+]1cccc(NC(=O)c2ccc(NC(=O)c3ccc(C(=O)Nc4ccc(C(=O)Nc5ccc[n+](C)c5)c(N)c4)cc3N)cc2)c1.Cc1ccc(S(=O)(=O)[O-])cc1.Cc1ccc(S(=O)(=O)[O-])cc1 , report its Rm.
-0.7

Record request: Rm value, item Cc1ccc(S(=O)(=O)[O-])cc1.Cc1ccc(S(=O)(=O)[O-])cc1.Cc1ccc2c(c1)c(Nc1ccc(C(=O)Nc3ccc(Nc4cc[n+](C)cc4)cc3)cc1)cc[n+]2C
0.51

Consider the compound shown here: Cc1ccc(S(=O)(=O)[O-])cc1.Cc1ccc(S(=O)(=O)[O-])cc1.Cc1cccc2c(Nc3ccc(C(=O)Nc4ccc(Nc5cc[n+](C)cc5)cc4)cc3)cc[n+](C)c12 What is its recorded Rm?
0.51

Would you kindly share the measured Rm for C[n+]1cccc(NC(=O)c2ccc(NC(=O)c3ccc(C(=O)Nc4ccc(C(=O)Nc5ccc[n+](C)c5)c(Cl)c4)cc3)cc2Cl)c1.Cc1ccc(S(=O)(=O)[O-])cc1.Cc1ccc(S(=O)(=O)[O-])cc1 ?
0.2

Item CC[n+]1cccc2cc(NC(=O)c3ccc(C(=O)Nc4ccc5c(ccc[n+]5CC)c4)nc3)ccc21.Cc1ccc(S(=O)(=O)[O-])cc1.Cc1ccc(S(=O)(=O)[O-])cc1 has what recorded Rm?
-0.15
